test: amyloid nucleation score (Sup35N fusion, yeast selection) (log enrichment); library NNK3; higher = more nucleation; inactive = no reads after selection;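 also: zero at mode of non-aggregating sequences after 7 days selection at 30°C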
Record Met whenever amyloid nucleation score is at 1 or higher; record Not met when lower.

{"SUBSTANCE": "TGSNRSYIFFCWSRFNVMFG", "CATEGORY LABEL": "Not met"}
{"SUBSTANCE": "IFILTMSDWVFL", "CATEGORY LABEL": "Met"}
{"SUBSTANCE": "YWIEAPIFYPLFTAIVKQAM", "CATEGORY LABEL": "Not met"}
{"SUBSTANCE": "WIRIIQLNVSERGNRVGSYC", "CATEGORY LABEL": "Not met"}
{"SUBSTANCE": "MLNGVLNSKVPMNRRTSGNL", "CATEGORY LABEL": "Not met"}
{"SUBSTANCE": "LFCLKIKLEAERRYLQGLRH", "CATEGORY LABEL": "Met"}

###

assay: amyloid nucleation score (Sup35N fusion, yeast selection) (log enrichment); library NNK1; higher = more nucleation; inactive = no reads after selection
Items are presented alongside their recorded amyloid nucleation score.

{"SUBSTANCE": "VFFSYINCLRF", "amyloid nucleation score": 0.218}
{"SUBSTANCE": "YSDCDGTMCYVDAYMCGYMA", "amyloid nucleation score": 3.46}
{"SUBSTANCE": "TFLTCYRPGPIDNSWRIVSM", "amyloid nucleation score": 1.1}
{"SUBSTANCE": "HRILVGGFRSCVMT", "amyloid nucleation score": 0.311}
{"SUBSTANCE": "HCRYMMSRVILSCILARPQ", "amyloid nucleation score": 2.55}
{"SUBSTANCE": "SFALLTQLNEYKTARMKRAG", "amyloid nucleation score": 0.64}
{"SUBSTANCE": "MVRWFWVVGHQVFTYVRLWR", "amyloid nucleation score": -0.076}
{"SUBSTANCE": "HSVIIALRGCIRIG", "amyloid nucleation score": 2.25}
{"SUBSTANCE": "CRCSSQLRYMHGRFWFDRSV", "amyloid nucleation score": 0.084}
{"SUBSTANCE": "TIGPSGNLEGCVLSVGASNI", "amyloid nucleation score": -1.35}
{"SUBSTANCE": "RDFYNCS", "amyloid nucleation score": 0.166}
{"SUBSTANCE": "FSYRWGLVFSFRDVKLL", "amyloid nucleation score": 2.27}
{"SUBSTANCE": "WMTTEIRRAIIEIRSVLWTS", "amyloid nucleation score": 0.33}
{"SUBSTANCE": "RNSLNTLSPTARCSVSTFVR", "amyloid nucleation score": 0.562}
{"SUBSTANCE": "SNLLTCPKYFVVTFFCL", "amyloid nucleation score": 0.211}
{"SUBSTANCE": "RRRYSC", "amyloid nucleation score": -0.307}
{"SUBSTANCE": "LMVGVSRGSGWRCGPLGEGA", "amyloid nucleation score": 0.035}

###

experiment: amyloid nucleation score (Sup35N fusion, yeast selection) (log enrichment); library NNK1; higher = more nucleation; inactive = no reads after selection
Record 1 whenever amyloid nucleation score is at -0.2 or higher; record 0 when lower.

{"SUBSTANCE": "HGYFSNMWSYRRYQLLKLSP", "CATEGORY LABEL": 1}
{"SUBSTANCE": "TGRAPSVLHNKR", "CATEGORY LABEL": 0}
{"SUBSTANCE": "SRHFFTAKCQRPRFLWKSDR", "CATEGORY LABEL": 1}
{"SUBSTANCE": "SDQNWMVPQDGPSPTSYLDD", "CATEGORY LABEL": 1}
{"SUBSTANCE": "HILTMDLLPTPLSRQLRNMN", "CATEGORY LABEL": 0}
{"SUBSTANCE": "ILRCRGNALNAYWRGSFNR", "CATEGORY LABEL": 1}
{"SUBSTANCE": "TMFLVSRDFRGIVLYWITTF", "CATEGORY LABEL": 0}
{"SUBSTANCE": "TTVPSNV", "CATEGORY LABEL": 1}
{"SUBSTANCE": "RKEISGLMVLLEANLVTWFV", "CATEGORY LABEL": 1}
